Reference for the values: ChEMBL document CHEMBL3232916

tested on: Rattus norvegicus; assay: Antiinflammatory activity in albino rat assessed as inhibition of carrageenan-induced paw edema at 0.28 mmol/kg, po administered 30 mins before carrageenan challenge measured after 5 hrs relative to control; type: functional
Field: inhibition in vivo at 280 µmol/kg. Provide a value for each of the compounds that follow.
Dear colleague, please return just the value in %, with no unit written.

Query for Rattus norvegicus: what inhibition in vivo at 280 µmol/kg does the record show for `CNC(=O)c1nc(-c2cc(OC)c(OC)c(OC)c2)n(-c2ccc(OC)cc2)n1` ?
50

Query for Rattus norvegicus: what inhibition in vivo at 280 µmol/kg does the record show for `COc1ccc(-n2nc(C(N)=O)nc2-c2cc(OC)c(OC)c(OC)c2)cc1` ?
64

Query for Rattus norvegicus: what inhibition in vivo at 280 µmol/kg does the record show for `COc1ccc(-n2nc(C(=O)NN)nc2-c2cc(OC)c(OC)c(OC)c2)cc1` ?
56

Query for Rattus norvegicus: what inhibition in vivo at 280 µmol/kg does the record show for `COc1ccc(-n2nc(C(=O)Nc3ccc(OC)c(OC)c3)nc2-c2cc(OC)c(OC)c(OC)c2)cc1` ?
61

Query for Rattus norvegicus: what inhibition in vivo at 280 µmol/kg does the record show for `COc1ccc(-n2nc(C(=O)Nc3ccc(Cl)cc3)nc2-c2cc(OC)c(OC)c(OC)c2)cc1` ?
70

Query for Rattus norvegicus: what inhibition in vivo at 280 µmol/kg does the record show for `COc1ccc(-n2nc(C(=O)Nc3ccccc3)nc2-c2cc(OC)c(OC)c(OC)c2)cc1` ?
46

Query for Rattus norvegicus: what inhibition in vivo at 280 µmol/kg does the record show for `COc1ccc(-n2nc(C(=O)Nc3ccc(O)cc3)nc2-c2cc(OC)c(OC)c(OC)c2)cc1` ?
27

Query for Rattus norvegicus: what inhibition in vivo at 280 µmol/kg does the record show for `CCNC(=O)c1nc(-c2cc(OC)c(OC)c(OC)c2)n(-c2ccc(OC)cc2)n1` ?
52
